Source of measurements: patent US8575158B2

Biological target: hCRTH2 receptor (Homo sapiens, UniProt Q9Y5Y4)
Construct: expressed in transfected cells; host or cells: HEK293
Sequence (Q9Y5Y4 1-395): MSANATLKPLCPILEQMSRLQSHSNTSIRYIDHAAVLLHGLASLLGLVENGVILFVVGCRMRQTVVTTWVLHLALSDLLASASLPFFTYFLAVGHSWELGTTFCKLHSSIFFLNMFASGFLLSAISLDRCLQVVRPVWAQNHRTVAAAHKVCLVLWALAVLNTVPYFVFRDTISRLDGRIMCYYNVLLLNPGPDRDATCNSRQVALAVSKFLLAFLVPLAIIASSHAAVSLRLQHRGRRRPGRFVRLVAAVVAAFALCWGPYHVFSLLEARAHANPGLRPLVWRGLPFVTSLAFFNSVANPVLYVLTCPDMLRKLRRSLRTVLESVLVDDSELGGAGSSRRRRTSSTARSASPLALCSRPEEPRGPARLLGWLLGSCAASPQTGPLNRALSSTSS
Experiment: Radioligand displacement assay (3H-PGD2) on hCRTH2 receptor membranes
Type: binding
Details: antagonistic activity; 3H-PGD2 displacement on HEK293-hCRTH2 membrane fragments
measurement.name: IC50 (nM)

// known answers, use as guide
O=C(O)COc1ccc(Cl)cc1C1c2ccccc2CCN1C(=O)OCc1ccccc1 (racemic) [Example 21] :: 6.87
O=C(O)COc1ccc(Cl)cc1C1c2ccccc2CCN1C(=O)OCC1CC1 (racemic) [Example 268] :: 27.7

[1] CC1(C)CN(C(=O)OCc2ccccc2)C(c2cc(Cl)ccc2OCC(=O)O)c2ccccc21 (racemic) [Example 180]
[2] CS(=O)(=O)c1cccc2c1CCN(C(=O)OCc1ccccc1)C2c1cc(F)ccc1OCC(=O)O (racemic) [Example 185]
# argmax over IC50 for candidates 1 and 2 Use the label to indicate which entry you chose. 1
